Test: motesanib plasma pharmacokinetics in patients
Assay type: in vivo, human
Details: human, in vivo, mean daily motesanib C 24 (above IC50 for HUVEC proliferation)
readout_type: concentration at 24 h

State its concentration at 24 h for this molecule: `CC1(C)CNc2cc(NC(=O)c3cccnc3NCc3ccncc3)ccc21`
> 4 ng/mL

----------
Experiment: motesanib plasma pharmacokinetics in patients
Type: in vivo, human
Conditions: human, in vivo, po
Method: Plasma motesanib and gemcitabine concentrations were analyzed using a validated liquid chromatography/tandem mass spectrometry (LC-MS/MS) method, respectively. […] All pharmacokinetic parameter estimates were calculated using standard noncompartmental methods and WinNonlin Professional software on […] (Version 5.1.1, Pharsight Corporation, Mountain View, Calif, USA).
readout_type: Tmax

State its Tmax for this molecule: CC1(C)CNc2cc(NC(=O)c3cccnc3NCc3ccncc3)ccc21 [motesanib]
~1 h
